Taken from the supplement of paper PMC11451515.

Tested on: SEM cells
Assay: cell viability relative to DMSO control; higher = less cytotoxic
Details: RPMI 5 mM glucose + 10% FBS; 48 h; 0.19 µM
# cell viability annotations
Quick reminder: number only, in %, skip the unit.

Check out these entries, answers already filled in.
# compound, recorded.measurement
data = [
    ("Nc1cccc2c1C(=O)N(C1CCC(=O)NC1=O)C2=O (configuration not stated)", 93.9),
    ("CCN(c1ccccc1)c1cc(NC)[n+](C)c(C)n1", 101),
    ("CC(C)(C)[C@H](NC(=O)c1ccc(N)c(Cl)c1)C(=O)N1CCC[C@H]1C(=O)N[C@H](C#N)CC(=O)O", 124),
    ("CCOC(=O)\\C1=C\\[C@@H](OC(CC)CC)[C@H](NC(C)=O)[C@@H](N)C1", 92.7),
]

Problem: What value of cell viability has been reported for the following compound? `CC(C)(O)/C=C\C(=O)[C@](C)(O)[C@H]1[C@H](O)C[C@]2(C)[C@@H]3CC=C4[C@@H](C=C(O)C(=O)C4(C)C)[C@]3(C)C(=O)C[C@@]12C`
Solution: 15.8

Problem: Quick one: cell viability of `C[C@]12CC[C@H]3[C@@H](CCC/4=C/C(=O)CC[C@]34C)[C@@H]1CC[C@@H]2OC(=O)CCC5CCCC5` ?
Solution: 115
